System: N-methyltransferase (NMT)
Experiment: Standard enzyme assay with purified E. coli-produced NMT, N-methylated product measured by LC-MS
Format: biochemical, Ephedra sinica
Conditions: 1 mM alkaloid substrate, 1 mM SAM, 100 μg/mL purified NMT, 4 h at 37° C., pH 8.5
measureName: acceptance as substrate for N-methylation by NMT (FIG. 3)

> print(dat)
                                   molecule          endpointresult
1  CN[C@@H](C)[C@@H](O)c1ccccc1 [pseudoephedrine]                 accepts
2   CN[C@@H](C)[C@H](O)c1ccccc1 [ephedrine]                 accepts
3  CNCC(O)c1ccc(O)cc1 (centres unmarked) [Synephrine, synephrine]  accepted as substrates
4  NCC(O)c1ccc(O)cc1 (centres unmarked) [octopamine]  accepted as substrates
